Test system: COLO 205 colon
test-method-notes: NCI-60 one-dose screen, 48 h (100 = growth as untreated, 0 = no growth, -100 = all killed)
applied-conditions: 10 µM unless noted
This is part of a sample that, as a whole, favours compounds with a hit. Of some 83,000 tested, about 20% had one in any assay. Activity calls are given as the source filed them. The calls were made as follows: active = growth percent below 10; inactive = the rest.
measurement-type: growth

# compound, subject-of-test, growth
data = [
    ("Cc1nn2c(-c3nc4ccc(Cl)cc4[nH]3)c(-c3ccc(F)cc3)nc2s1", "COLO 205 colon", "108% (inactive)"),
    ("O=C1CC(c2ccsc2)c2snc(-c3ccc(Cl)cc3)c2N1 (stereo unspecified)", "COLO 205 colon", "-42.8% (active)"),
    ("CSc1nnc(-c2sc3nnc(-c4ccccc4)c(-c4ccccc4)c3c2O)o1", "COLO 205 colon", "110% (inactive)"),
    ("CN1CCN(C(=O)OCCOCCOC(=O)N2CCN(C)CC2)CC1", "COLO 205 colon", "102% (inactive)"),
    ("O/N=C/c1cccs1", "COLO 205 colon", "119% (inactive)"),
]

IN: Item `COc1ccc(-c2nn(-c3ccc(NC(=O)c4ccc(Cl)c(Cl)c4)cc3)cc2-c2ccncc2)cc1Cl` has what recorded growth?
OUT: -27.2% (active)

IN: Item `Cc1ccc2c(c1)c(Sc1ccc(C(=O)NO)cc1)c1n2CN(C)CC1` has what recorded growth?
OUT: 14.1% (inactive)

IN: Item `O=C(Nc1ccc(Cl)c(Cl)c1)OCn1ncc2ccc([N+](=O)[O-])cc21` has what recorded growth?
OUT: 93.2% (inactive)

IN: Item `CCOC(=O)c1c(Cl)c2c(n1Cc1ccc(OC)cc1)-c1oncc1CCC2` has what recorded growth?
OUT: 93.2% (inactive)

IN: Item `O=[N+]([O-])c1ccc2nc(N/N=C/c3ccc(O)cc3)sc2c1` has what recorded growth?
OUT: 89.9% (inactive)

IN: Item `CCSc1nnc2c3cc(Br)ccc3n(C)c2n1` has what recorded growth?
OUT: 102% (inactive)
